Compiled IC50 measurements on Lysine-specific demethylase 6A (Homo sapiens, UniProt O15550) taken from the literature.
Sequence (O15550 whole entry): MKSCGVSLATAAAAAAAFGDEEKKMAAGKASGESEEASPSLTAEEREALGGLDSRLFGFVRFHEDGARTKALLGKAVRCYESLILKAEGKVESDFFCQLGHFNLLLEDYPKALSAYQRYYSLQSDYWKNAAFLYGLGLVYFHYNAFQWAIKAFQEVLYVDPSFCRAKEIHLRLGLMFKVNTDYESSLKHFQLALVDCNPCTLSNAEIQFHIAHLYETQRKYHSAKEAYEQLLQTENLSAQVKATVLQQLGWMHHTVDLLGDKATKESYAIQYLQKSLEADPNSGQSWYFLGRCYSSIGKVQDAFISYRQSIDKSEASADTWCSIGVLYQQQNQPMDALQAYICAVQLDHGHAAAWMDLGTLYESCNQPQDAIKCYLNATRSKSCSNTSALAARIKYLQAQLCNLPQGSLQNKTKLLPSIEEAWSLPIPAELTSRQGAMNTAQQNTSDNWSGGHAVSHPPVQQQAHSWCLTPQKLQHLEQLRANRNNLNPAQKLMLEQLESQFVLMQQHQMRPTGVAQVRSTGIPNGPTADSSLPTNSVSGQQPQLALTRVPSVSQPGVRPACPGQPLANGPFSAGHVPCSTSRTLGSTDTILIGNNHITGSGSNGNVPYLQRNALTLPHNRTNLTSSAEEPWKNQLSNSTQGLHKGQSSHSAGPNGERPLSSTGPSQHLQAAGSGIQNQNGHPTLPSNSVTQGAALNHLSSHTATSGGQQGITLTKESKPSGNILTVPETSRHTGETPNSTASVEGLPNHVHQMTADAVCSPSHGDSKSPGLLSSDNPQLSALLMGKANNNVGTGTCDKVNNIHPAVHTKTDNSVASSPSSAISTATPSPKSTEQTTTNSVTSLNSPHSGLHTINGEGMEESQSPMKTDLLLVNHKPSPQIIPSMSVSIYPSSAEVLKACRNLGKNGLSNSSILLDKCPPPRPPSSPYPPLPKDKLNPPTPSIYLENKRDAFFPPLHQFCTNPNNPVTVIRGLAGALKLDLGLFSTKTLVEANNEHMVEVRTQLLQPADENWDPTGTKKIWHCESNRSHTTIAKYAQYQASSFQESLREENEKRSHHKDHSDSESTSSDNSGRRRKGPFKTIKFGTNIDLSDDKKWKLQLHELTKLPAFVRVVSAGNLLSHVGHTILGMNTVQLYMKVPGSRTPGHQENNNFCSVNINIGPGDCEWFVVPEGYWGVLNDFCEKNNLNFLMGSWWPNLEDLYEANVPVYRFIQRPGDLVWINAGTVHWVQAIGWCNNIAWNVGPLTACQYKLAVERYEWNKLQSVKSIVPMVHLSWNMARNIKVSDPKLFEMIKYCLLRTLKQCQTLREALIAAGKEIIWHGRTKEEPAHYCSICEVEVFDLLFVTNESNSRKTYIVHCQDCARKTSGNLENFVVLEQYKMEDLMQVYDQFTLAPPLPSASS
METRIC: IC50

                                         smi    result
 0          O=C(O)c1cnnc(CNCC(=O)N2CCCCC2)c1  > 2.5 µM
 1  C[C@H](c1ccccc1)N1CC[C@@H](CNCc2cc(C(=O)O)ccn2)C1=O  > 2.5 µM
 2  O=C(O)c1ccnc(CNCc2nccn2C/C=C/c2ccccc2)c1  > 2.5 µM
 3  CCN(CCN(C)C)C(=O)CNCc1cc(CNC(=O)C(F)(F)F)ccn1  > 2.5 µM
 4  O=C(O)CCNc1cc(N2CCc3ccccc3CC2)nc(-c2ccccn2)n1  0.053 µM
 5  C[C@H](c1ccccc1)N1CCC[C@@H](CNCc2cc(C(=O)O)ccn2)C1=O  > 2.5 µM
 6      CCN(CCN(C)C)C(=O)CNCc1cc(C(=O)O)ccn1    > 1 µM
 7      Cc1cn2c(n1)CCN(Cc1cc(C(=O)O)ccn1)CC2  > 2.5 µM
 8  C[C@H](c1ccccc1)N1CCC[C@H](CNCc2cc(C(=O)O)ccn2)C1=O  > 2.5 µM
 9  COc1ccc([C@@H](C)N2CCC[C@@H](CNCc3cc(C(=O)O)ccn3)C2=O)cc1  > 2.5 µM
10    CCOC(=O)c1ccnc(CNCC(=O)N(CC)CCN(C)C)c1  < 0.1 µM
11              Oc1ccc(O)c(-c2nc3ccccc3o2)c1   25.7 µM
